# target-under-test: Melatonin receptor type 1B (Homo sapiens, UniProt P49286)
# Sequence (P49286 whole entry): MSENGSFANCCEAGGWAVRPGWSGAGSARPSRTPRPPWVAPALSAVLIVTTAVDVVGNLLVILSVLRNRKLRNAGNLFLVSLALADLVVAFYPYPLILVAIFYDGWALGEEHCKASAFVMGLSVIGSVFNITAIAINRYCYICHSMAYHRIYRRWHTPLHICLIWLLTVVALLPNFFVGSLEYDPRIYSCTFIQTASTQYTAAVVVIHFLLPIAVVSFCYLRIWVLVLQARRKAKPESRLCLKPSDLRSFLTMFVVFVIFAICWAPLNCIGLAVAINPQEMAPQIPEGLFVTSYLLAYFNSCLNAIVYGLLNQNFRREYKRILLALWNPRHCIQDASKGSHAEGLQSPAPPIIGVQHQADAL
# assay-protocol: Effective concentration against human MT2 (Melatonin) receptor stably expressed in NIH3T3 cells in adenylyl cyclase assay
# Assay type: functional, cell-based
measured-metric: EC50 (nM)
Field format: number, assumed nM, no unit text.

What value of EC50 has been reported for the following compound? `CCNC(=O)N1CCN([C@@H]2CCc3ccc(OC)cc32)CC1`
2.4

* * *

# target-under-test: UniProt:P49286
Label key: Met means IC50 under 3 nM; Not met means IC50 of 3 nM or more.

# check: IC50 < 3 nM for COc1ccc2c(c1)C(N1CCN(C(C)=O)CC1)CC2 (configuration not stated)
Not met

And for CCNC(=O)N1CCN(C2CCc3ccc(OC)cc32)CC1 (configuration not stated) ?
Not met

Please do the same for `COc1ccc(F)c(CN2CCN(C(=O)C3CC3)CC2)c1` as well.
Not met

Queued: `CCNC(=O)N1CCN([C@H]2CCc3ccc(OC)cc32)CC1`
Not met

Let us now turn to `CCNC(=O)N1CCN([C@@H]2CCc3ccc(OC)cc32)CC1`
Met

What do we get for `CCNC(=O)N1CCN(c2cccc3ccc(OC)cc23)CC1` ?
Not met

Likewise for `COc1ccc2c(c1)[C@@H](N1CCN(C(=O)C3CC3)CC1)CC2` ?
Not met

// same read-out, input: `COc1ccc2c(c1)[C@@H](N1CCN(C(=O)C(C)C)CC1)CC2`
Not met

Check CCNC(=O)N1CCN(C2CCCc3ccc(OC)cc32)CC1 (configuration not stated) too.
Not met

Then this compound: CCCCC(=O)N1CCN(C2CCc3ccc(OC)cc32)CC1 (configuration not stated)
Not met

Continue with CCCC(=O)N1CCN(C2CCc3ccc(OC)cc32)CC1 (configuration not stated)
Met

* * *

# target-under-test: Melatonin receptor type 1A (Homo sapiens)
# Sequence (P48039 whole entry): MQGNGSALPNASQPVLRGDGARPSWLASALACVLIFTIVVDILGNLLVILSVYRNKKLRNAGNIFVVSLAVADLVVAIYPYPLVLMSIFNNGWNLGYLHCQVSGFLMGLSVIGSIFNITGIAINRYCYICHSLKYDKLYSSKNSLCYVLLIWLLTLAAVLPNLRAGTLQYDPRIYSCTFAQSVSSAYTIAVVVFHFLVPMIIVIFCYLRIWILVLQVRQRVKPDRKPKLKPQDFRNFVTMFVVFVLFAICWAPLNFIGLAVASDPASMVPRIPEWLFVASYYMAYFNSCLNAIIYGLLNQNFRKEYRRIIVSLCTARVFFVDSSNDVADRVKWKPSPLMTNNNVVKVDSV
pIC50: −log10 of the molar value.
measured-metric: pIC50

I am curious: what pIC50 value has been reported for `CCNC(=O)N1CCN(c2cccc3ccc(OC)cc23)CC1` ?
< 6.00

Lookup CCNC(=O)N1CCN(C2CCCc3ccc(OC)cc32)CC1 (stereo unspecified)
< 6.00

Now try CCC(=O)N1CCN(C2CCc3ccc(OC)cc32)CC1 (stereo unspecified) .
< 6.00

Also `COc1ccc(F)c(CN2CCN(C(=O)C3CC3)CC2)c1` , if possible.
< 6.00

Could you do the same for CCCCC(=O)N1CCN(C2CCc3ccc(OC)cc32)CC1 (stereo unspecified) , please?
< 6.00

Same question, `COc1ccc2c(c1)[C@H](N1CCN(C(=O)C3CC3)CC1)CC2` this time
7.35

* * *

Parameter IC50, tested on UniProt P48039, listed per item.

Give its IC50 value. Item: COc1ccc2c(c1)C(N1CCN(C(=O)C3CC3)CC1)CCC2 (stereo unspecified)
> 1000 nM

Next up: `COc1ccc2c(c1)[C@@H](N1CCN(C(=O)C(C)C)CC1)CC2`
> 1000 nM

Next record, please: `COc1ccc2c(c1)[C@@H](N1CCN(C(=O)C3CC3)CC1)CC2`
> 1000 nM

// next record COc1ccc2c(c1)C(N1CCN(C(C)=O)CC1)CC2 (stereo unspecified)
> 1000 nM

Again, but for `CCNC(=O)N1CCN([C@@H]2CCc3ccc(OC)cc32)CC1`
200 nM

Record: CCNC(=O)N1CCN(C2CCc3ccc(OC)cc32)CC1 (stereo unspecified)
> 1000 nM
